target: CypD (Homo sapiens); assay: Chymotrypsin coupled prolyl-isomerase assay; conditions: Wild-Type Cyclophilin Prolyl Isomerase Inhibition IC50 Values, CypD, wild-type CypD
Sequence (P30405 45-207): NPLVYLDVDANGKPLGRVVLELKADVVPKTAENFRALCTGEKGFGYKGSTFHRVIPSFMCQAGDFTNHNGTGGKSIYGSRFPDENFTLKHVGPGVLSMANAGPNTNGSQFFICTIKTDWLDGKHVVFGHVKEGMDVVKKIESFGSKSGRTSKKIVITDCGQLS
pIC50: −log10 of the molar value.
reported endpoint: pIC50

{"columns": ["compound", "reported endpoint", "measured number"],
 "data": [
  ["NCCOCCNC(=O)C1CCNC(=O)C=CC(=O)N2CCCC(C2)C(=O)NC(Cc2ccc(C(=O)c3ccccc3)cc2)C(=O)NCc2ccccc2CC(=O)N1 (centres unmarked)", "pIC50", 5.42],
  ["NC(=O)C1CCNC(=O)C=CC(=O)N2CCCC(Cc3ccccc3)(C2)C(=O)NC(Cc2ccc(-c3ccc(C=O)c(B(O)O)c3)cc2)C(=O)NCc2ccccc2CC(=O)N1 (centres unmarked)", "pIC50", 6.22],
  ["NCCOCCNC(=O)[C@@H]1CCNC(=O)/C=C/C(=O)N2CCC[C@](Cc3ccccc3)(C2)C(=O)N[C@@H](Cc2ccc(-c3ccc(CC(C(=O)O)C(=O)O)cc3)cc2)C(=O)NCc2ccccc2CC(=O)N1", "pIC50", 8.00],
  ["NCCOCCNC(=O)C1CCNC(=O)C=CC(=O)N2CCCC(C2)C(=O)NC(Cc2ccco2)C(=O)NCc2ccccc2CC(=O)N1 (centres unmarked)", "pIC50", 4.77],
  ["CC12CCCN(C1)C(=O)C=CC(=O)NCCC(C(=O)NCCOCCN)NC(=O)Cc1ccccc1CNC(=O)C(Cc1ccco1)NC2=O (centres unmarked)", "pIC50", 5.44]
]}
